- System: β-galactosidase in CMV-LacZ C2C12 myoblasts
- ASSAY_TEXT: CMV-LacZ secondary screen in C2C12 myoblasts (β-Gal stabilizing assay)
- Type: cell-based, mouse
- CONDITION_SUMMARY: 10 uM; SU9516 analogs, C2C12 CMV-LacZ, N=2
Criterion: CMV-LACZ in Myoblasts, value relative to DMSO strictly less than 1. Met: Condition met. Not met: Condition not met.

Hello, I'm reviewing records and need to know if CMV-LACZ in Myoblasts, value relative to DMSO of COc1ccc2c(c1)/C(=C\c1cccc(/C=C3/C(=O)Nc4ccc(OC)cc43)n1)C(=O)N2 is below 1. Could you check?
Condition not met

---

- Tested on: β-galactosidase in CMV-LacZ C2C12 myoblasts
- ASSAY_TEXT: CMV-LacZ secondary screen in C2C12 myoblasts (β-Gal stabilizing assay)
- Assay type: cell-based, mouse
- CONDITION_SUMMARY: 10 uM; CMV-LacZ C2C12 myoblasts
Response field label: string, one of YES (CMV-LACZ in Myoblasts (β-galactosidase activity relative to DMSO) strictly below 1) or NO.

Some solved entries appear below for comparison.
> print(dat)
                                   molecule  qualitative.label
1  CCOC(=O)C1CCCN(C(=O)CNS(=O)(=O)c2ccc(Br)s2)C1 (stereo not shown) [MLS000086970-01]                YES
2  O=C(c1ccccc1)N1CCN(S(=O)(=O)c2cccs2)CC1 [MLS001035690-01]                 NO

Could you please tell me whether CMV-LACZ in Myoblasts (β-galactosidase activity relative to DMSO) recorded for CSc1ccc(S(=O)(=O)NCc2ccccc2)cc1 [MLS000531177-01] is less than 1?
YES

Is it true that CMV-LACZ in Myoblasts (β-galactosidase activity relative to DMSO) reported for Cc1ccsc1-c1n[nH]c(=S)n1C1CCCCC1 [MLS000698617-01] is less than 1?
NO

Field: below-cutoff. Rule: recorded CMV-LACZ in Myoblasts (β-galactosidase activity relative to DMSO) strictly less than 1. Subject: COc1cc(NC(=O)OCc2ccccc2)c2ncccc2c1 [MLS002667707-01]
NO

---

- Tested on: β-galactosidase in CMV-LacZ C2C12 myotubes
- ASSAY_TEXT: CMV-LacZ secondary screen in C2C12 myotubes (β-Gal stabilizing assay)
- Assay type: cell-based, mouse
- CONDITION_SUMMARY: 5 uM; C2C12 CMV-LacZ myotubes; fold relative to DMSO
READOUT_TYPE: CMV-LACZ in Myotubes, signal relative to DMSO
When you answer, write just the number.

Example cases with answers are listed next.
> print(dat)
                                   compound  observed.result
1                    Nc1cccc(/C=C/C(=O)O)c1           1.0471
2  COc1ccc(NC(=O)c2cccc(N3C(=O)c4ccc(C(=O)Nc5ccc(OC)c(O)c5)cc4C3=O)c2)cc1O            1.025
3        Cc1ccccc1OCC(=O)Nc1nnc(-c2ccco2)s1            0.832

// fetch CMV-LACZ in Myotubes, signal relative to DMSO given entry CCOC(=O)c1cc(-c2cccs2)nc2c1c(C)nn2-c1ccccn1
0.9283

Give me measured CMV-LACZ in Myotubes, signal relative to DMSO, please, for this compound: CCCn1c(-c2cc(OC)c(OC)c(OC)c2)nc2c1c(=O)[nH]c(=O)n2Cc1ccccc1
0.9101

Report measured CMV-LACZ in Myotubes, signal relative to DMSO; entry is COC(=O)c1ccc(N=Nc2ccccc2)cc1
0.9623

# return recorded CMV-LACZ in Myotubes, signal relative to DMSO for entry Cn1ccc(C(=O)Nc2cccnc2Cl)n1
0.8937

Return reported CMV-LACZ in Myotubes, signal relative to DMSO. Input compound: CC(C)N(CCO)C(=O)CCc1nnc(CCCc2ccccc2)o1
1.1188

Name the recorded CMV-LACZ in Myotubes, signal relative to DMSO of the item CC(=O)Nc1c(-c2ccc(Cl)cc2)c(=O)c2ccccc2n1C in your answer.
0.8137

Identify CMV-LACZ in Myotubes, signal relative to DMSO associated with the compound N#Cc1nc(COc2ccccc2)oc1N1CCCC1
0.8979

---

# fold induction at 20 µM annotations
- Test system: α7 integrin (LacZ reporter in α7βgal+/− myoblasts)
- ASSAY_TEXT: Myoblast α7+/LacZ integrin FDG assay (Burkin assay in myoblasts, 96-well)
- Assay type: cell-based, mouse
- CONDITION_SUMMARY: Mus musculus, Myoblast, 48 h; 20 uM; α7+/LacZ myoblasts, 96-well; read-out: Burkin Assay in Myoblasts, value relative to DMSO
Answer as a number with no unit attached.

Guide cases for fold induction at 20 µM, answers given:
> print(dat)
                                   compound             readout.type  observed.result
1  O=C(O)CCn1cc(/C=C2/NC(=S)N(c3ccccc3)C2=O)c(-c2ccccc2)n1 [MLS000585616-01]  fold induction at 20 µM            0.935
2  COc1cccc(NC(=O)c2ccc3c(c2)CCCC3)c1 [MLS000879190-01]  fold induction at 20 µM             1.09

Hello, please tell me recorded fold induction at 20 µM for this one: COCCn1c(=N)c(S(=O)(=O)c2ccc(Br)cc2)cc2c(=O)n3ccccc3nc21 [MLS001141113-01]
0.915

// fetch fold induction at 20 µM given entry CCOC(=O)C1CCCN(C(=O)CNS(=O)(=O)c2ccc(Br)s2)C1 (stereo not drawn) [MLS000086970-01]
1.02

Determine from records and report fold induction at 20 µM for COc1ccc(NC(=O)c2ccc3nc(C)sc3c2)cc1 [MLS001204005-01]
1.23

Supply fold induction at 20 µM value. Item: COc1ccccc1NC(=O)CCCc1c[nH]c2ccccc12 [MLS000334464-01]
0.896

---

Item-by-item account of activation at 1.53 µM
- System: α7 integrin (LacZ reporter in α7LacZ+/− myoblasts)
- ASSAY_TEXT: qHTS of the LOPAC library and MLSMR (online screen, α7LacZ+/− myoblasts)
- CONDITION_SUMMARY: Mus musculus, Myoblast, 48 h, read-out: Activity at 1.530 uM [%] **
# number only, unit % dropped from output

Examples from the recorded data:
> print(dat)
                                   molecule  observed.result
1            COc1ccc(Nc2ncnc3ccc(C)cc23)cc1             3.35
2  O=C1CCc2cc(S(=O)(=O)Nc3ccc(C(F)(F)F)cc3)cc3c2N1CC3            -19.1

Now for the molecule whose activation at 1.53 µM we want.
State measured activation at 1.53 µM of the molecule C=CCN(CC=C)C(=O)c1ccc(OC2CCN(S(=O)(=O)N(C)C)CC2)cc1 with α7 integrin (LacZ reporter in α7LacZ+/− myoblasts).
3.46

---

Reported CMV-LACZ in Myotubes, signal relative to DMSO by item:
- System: β-galactosidase in CMV-LacZ C2C12 myotubes
- ASSAY_TEXT: CMV-LacZ secondary screen in C2C12 myotubes (β-Gal stabilizing assay)
- Assay type: cell-based, mouse
- CONDITION_SUMMARY: 0.5 uM; C2C12 CMV-LacZ myotubes; fold relative to DMSO
Reply with the value as a number alone.

Look over these answered cases.
> print(dat)
                                   compound  observed.result
1  CCOc1ccc(Br)cc1S(=O)(=O)Nc1ccc(C(=O)Nc2ccccc2OC)cc1           1.0086
2   C/C(=N\NC(=O)c1cc(C)oc1C)c1ccc2ccccc2c1           0.9743
3  COc1ccc(CN2CCNC(=O)C2CC(=O)NCCc2c[nH]c3ccccc23)c(OC)c1 (stereo not drawn)           1.0019

Provide one value: measured CMV-LACZ in Myotubes, signal relative to DMSO of CC1(C)Cc2c(c(N3CCOCC3)nc3sc(C(=O)Nc4ccccc4)c(N)c23)CO1
1.0222

Give recorded CMV-LACZ in Myotubes, signal relative to DMSO. c1ccc(-c2cn3c4c(sc3n2)CCCC4)cc1
0.9855

Fill in reported CMV-LACZ in Myotubes, signal relative to DMSO for this entry: CC(C)(C)NC(=O)NC(=O)CN1CCN(Cc2ccccc2)CC1
1.0229

---

- Tested on: β-galactosidase in CMV-LacZ C2C12 myoblasts
- ASSAY_TEXT: CMV-LacZ secondary screen in C2C12 myoblasts (β-Gal stabilizing assay)
- Format: cell-based, mouse
- CONDITION_SUMMARY: 10 uM; CMV-LacZ C2C12 myoblasts
Response key: 1.0 means CMV-LACZ in Myoblasts (β-galactosidase activity relative to DMSO) >= 0.9; 0.0 means CMV-LACZ in Myoblasts (β-galactosidase activity relative to DMSO) < 0.9.

Example entries and their recorded answers appear below.
> print(dat)
                                   molecule  qualitative.label
1  CC(=O)Nc1ccc(NC(=O)c2cc(=O)c3cc(C)cc(C)c3o2)cc1                1.0
2      Nc1ncnc(N2CCc3ccccc32)c1[N+](=O)[O-]                0.0

Is the recorded value of CMV-LACZ in Myoblasts (β-galactosidase activity relative to DMSO) equal to or greater than 0.9 for this molecule? CC1Cc2ccccc2N1C(=O)CSc1nnc(N)s1 (centres unmarked)
1.0

Reported CMV-LACZ in Myoblasts (β-galactosidase activity relative to DMSO) reaches at least 0.9 for COc1ccc(OC)c(S(=O)(=O)Nc2c(NC3CCCCC3)c3ccccc3oc2=O)c1 ?
0.0

I'd appreciate it if you could say whether O=C(NCCc1ccc(Cl)cc1)C1CCCO1 (centres unmarked) has CMV-LACZ in Myoblasts (β-galactosidase activity relative to DMSO) at least equal to 0.9.
0.0

Please check the record COc1cccc(C(=O)COc2ccc3ccc(=O)oc3c2)c1 and state if its CMV-LACZ in Myoblasts (β-galactosidase activity relative to DMSO) is at or above 0.9.
1.0

Form field: CMV-LACZ in Myoblasts (β-galactosidase activity relative to DMSO) at least 0.9? Entry: CCC(C)n1[nH]c(=O)cc1N (centres unmarked)
1.0

Can CCn1c(=O)c2cc(C(=O)N(C)c3cc(C)ccc3OC)sc2c2ccccc21 be said to have CMV-LACZ in Myoblasts (β-galactosidase activity relative to DMSO) at or above 0.9?
0.0

Can Cc1cc(OCC(=O)NC(C)C)ccc1Cl be said to have CMV-LACZ in Myoblasts (β-galactosidase activity relative to DMSO) at or above 0.9?
1.0
